# protocol.text: folding enthalpy; higher = less favourable; fluorescence melt of hairpins on a sequencing array, two-state fit
# assay.context: sodium 0.088 M
property: folding enthalpy (kcal/mol)
Answers are plain numbers, in kcal/mol.

GAACCTGGAAACAGGTCC (.(((((....))))).)	-15.9

Below are 3 sequences. Give each one its folding enthalpy.
1. GTACTCGAAAGAGTGTAC ((((((....)))..)))
2. GACCCCGAAAGGGAGTC ((((((....))).)))
3. GTTATTGGAAACAGTAAC ((((.((....)).))))

Ans:
1. -12.6
2. -23
3. -27.5

Q: I would be grateful if you could share the reported folding enthalpy for CGTCTCGGAAACGAAACG (((.(((....))).))) .
Ans: -32.4
